Kindly supply the reported log10(IC50) values for the records listed here.
System: Cryptococcus neoformans
Test: Antifungal activity against Cryptococcus neoformans ATCC 90113 by CLSI method
Assay type: functional, organism-based
Conditions: read-out: IC50
Please note: log10 values; quantity IC50; unit nM.

## Task Fill blank: measured log10(IC50) of the compound "Clc1ccccc1CSc1cc2ccccc2[n+](CCCCCC2CCCCC2)c1.[I-]" is ____.
## Result 3.13

## Task Given "Oc1ccc(CSc2cc3ccccc3[n+](CCCCCC3CCCCC3)c2)cc1.[I-]" , state its recorded log10(IC50).
## Result 3.96

## Task Recorded log10(IC50) for "Brc1ccc(CSc2cc3ccccc3[n+](CCCCCC3CCCCC3)c2)cc1.[I-]" , please?
## Result 2.57

## Task Can you share its log10(IC50)? I mean this compound: "Cc1cccc(CSc2cc3ccccc3[n+](CCCCCC3CCCCC3)c2)c1.[I-]"
## Result 2.89

## Task Look up log10(IC50): [I-].[O-][S+](c1cc2ccccc2[n+](CCCCCc2ccccc2)c1)c1ccccc1C(F)(F)F (stereo not given)
## Result 3.97

====

Tested on: Cryptococcus neoformans
Test: Antifungal activity against Cryptococcus neoformans ATCC 90113 by CLSI method
Type: functional, organism-based
Conditions: read-out: pIC50 (converted)
Please go through the items and note down their IC50.
Give your result in nM as a bare value.

## Task Any idea what IC50 was measured for "[I-].c1ccc(CSc2cc3ccccc3[n+](CCCCCC3CCCCC3)c2)cc1" ?
## Result 301

## Task Fill in the blank: the reported IC50 of "Clc1ccc(CSc2cc3ccccc3[n+](CCCCCC3CCCCC3)c2)cc1.[I-]" is ____.
## Result 88.3

## Task Quick one: IC50 for "Fc1cccc(CSc2cc3ccccc3[n+](CCCCCC3CCCCC3)c2)c1.[I-]" ?
## Result 711

## Task Report IC50 for "COc1ccccc1CSc1cc2ccccc2[n+](CCCCCC2CCCCC2)c1.[I-]" please.
## Result 624

## Task Name the reported IC50 value associated with the molecule "Brc1ccc(CSc2cc3ccccc3[n+](CCCCCC3CCCCC3)c2)cc1.[I-]"
## Result 370

## Task Data request, read-out IC50, for [I-].[O-][S+](c1cc2ccccc2[n+](CCCCCc2ccccc2)c1)c1ccccc1Br (stereo unspecified)
## Result 9080

## Task Which IC50 reading was recorded for the molecule "Brc1cccc(CSc2cc3ccccc3[n+](CCCCCC3CCCCC3)c2)c1.[I-]" ?
## Result 361

## Task Please look up its IC50: "Oc1cccc(Sc2cc3ccccc3[n+](CCCCCC3CCCCC3)c2)c1.[I-]"
## Result 2340

## Task Quick one: IC50 for "Fc1ccccc1CSc1cc2ccccc2[n+](CCCCCC2CCCCC2)c1.[I-]" ?
## Result 948

## Task Can you look up the measured IC50 of [I-].[O-][S+](c1ccc(F)cc1)c1cc2ccccc2[n+](CCCCCc2ccccc2)c1 (stereo unspecified) for me?
## Result 27500

## Task So what's the measured IC50 for this one? "Clc1ccccc1CSc1cc2ccccc2[n+](CCCCCC2CCCCC2)c1.[I-]"
## Result 1350

====

Tested on: Vero
Experiment: Cytotoxicity against african green monkey Vero cells after 48 hrs by Neutral Red dye assay
Assay type: cell-based
Conditions: chlorocebus sabaeus
Readout type: Activity (µM)
# value in µM; strip the unit string

## Task // query Activity value for entry "COc1cccc(Sc2cc3ccccc3[n+](CCCCCC3CCCCC3)c2)c1.[I-]"
## Result 8.22

## Task Look up Activity for this molecule: "Cc1cccc(CSc2cc3ccccc3[n+](CCCCCC3CCCCC3)c2)c1.[I-]"
## Result 4.95

## Task Please give the measured Activity for this molecule: "FC(F)(F)c1ccc(CSc2cc3ccccc3[n+](CCCCCC3CCCCC3)c2)cc1.[I-]"
## Result 7.94

====

Tested on: Cryptococcus neoformans
Test: Antifungal activity against Cryptococcus neoformans ATCC 90113 by CLSI method
Assay type: functional, organism-based
Conditions: read-out: pIC50 (converted)
Exercise: for every item that follows, state its recorded log10 IC50.
Hey, these are logged values: log10 of IC50, nM being the unit before logging.

## Task Given the molecule "COc1ccc(CSc2cc3ccccc3[n+](CCCCCC3CCCCC3)c2)cc1.[I-]" , what is its reported log10 IC50?
## Result 3.33

## Task Give the measured log10 IC50 of C[n+]1c2ccccc2cc2[n-]c3ccccc3c21 [CRYPTOLEPINE] .
## Result 4.64

## Task log10 IC50 lookup needed for "COc1cccc(CSc2cc3ccccc3[n+](CCCCCC3CCCCC3)c2)c1.[I-]" , thanks.
## Result 2.78

## Task Can you look up the measured log10 IC50 of "Cc1cccc(CSc2cc3ccccc3[n+](CCCCCC3CCCCC3)c2)c1.[I-]" for me?
## Result 2.89

## Task Query (molecule): "Fc1cccc(Sc2cc3ccccc3[n+](CCCCCC3CCCCC3)c2)c1.[I-]" ; field requested: log10 IC50
## Result 4.12
